target: α1-adrenergic receptors; assay: [3H]-Prazosin binding; conditions: rat brain membranes; 0.2 nM 3H-Prazosine; indicates affinity for α1-adrenergic receptors; read-out: Inhibition of [3H]-Prazosin binding IC50
Reported IC50 values for the following molecules.
Value expressed in µM; do not type the unit.

Example molecules with recorded IC50:
MOLECULE: Cc1ccc(CC2(O)CCN(CCOc3ccc(O)cc3)CC2)cc1 [EP 824098, reference compound]
READOUT_LABEL: IC50
RECORDED_NUMBER: 3.5
--
MOLECULE: Oc1ccc(OCCN2CC[C@@](O)(Cc3ccccc3)[C@@H](O)C2)cc1 [I-2 (S,S)]
READOUT_LABEL: IC50
RECORDED_NUMBER: 30
--
MOLECULE: Oc1ccc(OCCN2CC[C@](O)(Cc3ccccc3)[C@H](O)C2)cc1 (racemic) [I (racemate)]
READOUT_LABEL: IC50
RECORDED_NUMBER: 27

Query: So what IC50 did Oc1ccc(OCCN2CC[C@](O)(Cc3ccccc3)[C@H](O)C2)cc1 [I-1 (R,R)] get with α1-adrenergic receptors?
Response: 25

----------
target: NMDA NR2B subunit containing receptors (Rattus norvegicus, UniProt P35439+Q00960); construct: Membranes were prepared by homogenization of the whole brain minus cerebellum and medulla oblongata; assay: [3H]-Ro 25-6981 binding; conditions: rat brain membranes; 5 nM 3H-Ro 25-6981; indicates affinity for NMDA NR2B subunit containing receptors; read-out: Inhibition of [3H]-Ro 25-6981 binding IC50
Sequence (Q00960 27-1482, other chains not shown): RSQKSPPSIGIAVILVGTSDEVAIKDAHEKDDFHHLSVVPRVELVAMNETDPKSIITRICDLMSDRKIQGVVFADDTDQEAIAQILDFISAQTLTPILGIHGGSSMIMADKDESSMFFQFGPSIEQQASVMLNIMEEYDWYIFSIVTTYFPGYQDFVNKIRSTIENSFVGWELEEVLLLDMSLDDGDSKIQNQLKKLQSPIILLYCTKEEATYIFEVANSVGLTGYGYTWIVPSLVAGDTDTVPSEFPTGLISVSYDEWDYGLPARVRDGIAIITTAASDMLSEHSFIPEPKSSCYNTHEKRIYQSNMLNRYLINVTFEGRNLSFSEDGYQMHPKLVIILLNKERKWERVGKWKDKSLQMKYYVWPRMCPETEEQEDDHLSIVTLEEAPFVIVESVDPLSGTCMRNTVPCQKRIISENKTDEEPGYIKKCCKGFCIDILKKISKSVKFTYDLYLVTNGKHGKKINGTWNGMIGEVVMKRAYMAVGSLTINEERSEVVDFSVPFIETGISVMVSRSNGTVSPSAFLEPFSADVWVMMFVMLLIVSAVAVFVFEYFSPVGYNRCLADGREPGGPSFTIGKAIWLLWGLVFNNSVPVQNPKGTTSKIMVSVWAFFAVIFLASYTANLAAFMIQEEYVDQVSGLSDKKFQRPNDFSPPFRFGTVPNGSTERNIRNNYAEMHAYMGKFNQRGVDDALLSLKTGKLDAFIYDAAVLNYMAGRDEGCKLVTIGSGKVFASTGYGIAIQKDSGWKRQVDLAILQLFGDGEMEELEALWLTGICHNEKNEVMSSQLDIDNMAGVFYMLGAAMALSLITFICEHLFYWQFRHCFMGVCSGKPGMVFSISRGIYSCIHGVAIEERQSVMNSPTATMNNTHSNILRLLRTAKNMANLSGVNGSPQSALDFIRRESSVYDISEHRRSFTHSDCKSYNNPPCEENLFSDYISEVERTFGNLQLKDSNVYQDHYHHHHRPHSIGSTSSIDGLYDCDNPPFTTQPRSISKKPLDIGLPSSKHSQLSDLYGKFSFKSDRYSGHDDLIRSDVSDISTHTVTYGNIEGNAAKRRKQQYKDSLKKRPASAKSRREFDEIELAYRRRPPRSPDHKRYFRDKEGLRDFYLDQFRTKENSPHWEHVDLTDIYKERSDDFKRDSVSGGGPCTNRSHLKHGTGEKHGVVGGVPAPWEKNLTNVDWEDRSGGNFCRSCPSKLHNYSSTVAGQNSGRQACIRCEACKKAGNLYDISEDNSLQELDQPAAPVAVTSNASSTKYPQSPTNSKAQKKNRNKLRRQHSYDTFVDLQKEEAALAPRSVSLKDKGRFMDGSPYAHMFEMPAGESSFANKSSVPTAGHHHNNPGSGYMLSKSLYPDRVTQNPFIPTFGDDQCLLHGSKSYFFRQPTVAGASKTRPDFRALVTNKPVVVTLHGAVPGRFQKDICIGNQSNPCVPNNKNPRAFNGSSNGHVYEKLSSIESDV
READOUT_LABEL: IC50

Example molecules with recorded IC50:
MOLECULE: Oc1ccc(OCCN2CC[C@](O)(Cc3ccccc3)[C@H](O)C2)cc1 (racemic) [I (racemate)]
RESULT: 45 nM
--
MOLECULE: Cc1ccc(CC2(O)CCN(CCOc3ccc(O)cc3)CC2)cc1 [EP 824098, reference compound]
RESULT: 10 nM
--
MOLECULE: Oc1ccc(OCCN2CC[C@](O)(Cc3ccccc3)[C@H](O)C2)cc1 [I-1 (R,R)]
RESULT: 38 nM

Next up:
Query: So what IC50 did Oc1ccc(OCCN2CC[C@@](O)(Cc3ccccc3)[C@@H](O)C2)cc1 [I-2 (S,S)] get with NMDA NR2B subunit containing receptors (Rattus norvegicus, UniProt P35439+Q00960)?
Response: 39 nM

----------
molecular target: recombinant human ERG potassium channels (Homo sapiens); test: Inhibition of the hERG K+ channel (whole-cell patch-clamp, CHO cells); conditions: recombinant human ERG channels expressed in CHO cells; concentrations higher than 10 μM not tested; read-out: Inhibition of hERG K+ current IC50
Sequence (Q12809 whole entry): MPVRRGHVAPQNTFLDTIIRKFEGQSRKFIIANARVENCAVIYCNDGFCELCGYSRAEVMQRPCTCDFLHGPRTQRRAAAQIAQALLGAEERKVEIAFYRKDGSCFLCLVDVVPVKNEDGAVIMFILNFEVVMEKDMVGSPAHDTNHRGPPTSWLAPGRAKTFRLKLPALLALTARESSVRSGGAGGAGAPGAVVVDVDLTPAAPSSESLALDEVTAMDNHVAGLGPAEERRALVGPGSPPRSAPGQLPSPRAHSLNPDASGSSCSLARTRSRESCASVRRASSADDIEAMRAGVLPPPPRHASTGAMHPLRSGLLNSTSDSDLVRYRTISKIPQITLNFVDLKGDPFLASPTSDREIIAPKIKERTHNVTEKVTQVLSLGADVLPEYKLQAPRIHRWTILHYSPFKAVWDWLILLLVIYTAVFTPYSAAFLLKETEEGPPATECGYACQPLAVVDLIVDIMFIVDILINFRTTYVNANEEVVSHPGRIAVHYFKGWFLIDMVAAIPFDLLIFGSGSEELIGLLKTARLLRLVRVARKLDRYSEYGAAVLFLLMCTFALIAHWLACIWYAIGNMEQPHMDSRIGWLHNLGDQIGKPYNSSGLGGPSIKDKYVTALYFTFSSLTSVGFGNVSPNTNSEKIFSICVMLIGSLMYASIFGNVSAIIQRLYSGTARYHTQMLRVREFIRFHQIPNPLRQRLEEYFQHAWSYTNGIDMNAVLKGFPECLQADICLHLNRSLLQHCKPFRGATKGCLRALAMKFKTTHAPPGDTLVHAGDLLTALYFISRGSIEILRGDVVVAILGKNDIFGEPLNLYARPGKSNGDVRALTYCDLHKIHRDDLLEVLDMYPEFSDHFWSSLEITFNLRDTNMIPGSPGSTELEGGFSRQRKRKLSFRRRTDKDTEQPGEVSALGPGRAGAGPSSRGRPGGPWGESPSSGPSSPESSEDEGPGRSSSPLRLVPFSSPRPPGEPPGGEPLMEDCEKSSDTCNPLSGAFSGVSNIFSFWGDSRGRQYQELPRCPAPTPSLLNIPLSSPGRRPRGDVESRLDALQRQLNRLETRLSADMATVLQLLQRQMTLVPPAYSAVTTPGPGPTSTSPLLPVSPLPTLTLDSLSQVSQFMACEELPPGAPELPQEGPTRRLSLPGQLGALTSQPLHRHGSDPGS
pIC50: −log10 of the molar value.
READOUT_LABEL: pIC50

Example compounds with recorded pIC50:
COMPOUND: Oc1ccc(OCCN2CC[C@](O)(Cc3ccccc3)[C@H](O)C2)cc1 (racemic) [I (racemate)]
pIC50: < 5.00
//
COMPOUND: Oc1ccc(OCCN2CC[C@](O)(Cc3ccccc3)[C@H](O)C2)cc1 [I-1 (R,R)]
pIC50: < 5.00
//
COMPOUND: Oc1ccc(OCCN2CC[C@@](O)(Cc3ccccc3)[C@@H](O)C2)cc1 [I-2 (S,S)]
pIC50: < 5.00

Next up:
Query: For Cc1ccc(CC2(O)CCN(CCOc3ccc(O)cc3)CC2)cc1 [EP 824098, reference compound] , what is its reported pIC50?
Response: 6.16
